assay: Ratio of drug level in brain to plasma in rat at 3 umol/kg, iv after 1 hr; type: ADME, organism-based; conditions: brain and plasma, read-out: BPR
parameter: Kp at 1 h
# print the numeric value only

// query Provide one value: measured Kp at 1 h of CC[C@H](NC(=O)c1c([S@+](C)[O-])c(-c2ccccc2)nc2ccccc12)c1ccccc1
// result 0.4

====

assay: Equilibrium solubility of the compound; format: physicochemical
parameter: log10 of solubility (log10 of the value in µM)
Friendly reminder: values = log10 of solubility, unit µM.

Before answering, review these 4 worked examples.
CC[C@H](NC(=O)c1c([S+](C)[O-])c(-c2ccccc2)nc2ccccc12)c1ccccc1 (mixture of isomers) : 2.36
CC[C@H](NC(=O)c1c([S+](C)[O-])c(-c2ccccc2)nc2ccccc12)c1ccccc1 (stereo in doubt; 2b) : 1.64
CC[C@H](NC(=O)c1c([S+](C)[O-])c(-c2ccccc2)nc2ccccc12)c1ccccn1 (mixture of isomers; 35b) : 2.66
C[S+]([O-])c1c(-c2ccccc2)nc2ccccc2c1C(=O)N[C@H](c1ccncc1)C1CC1 (stereo in doubt; 33b) : 2.57

# input for lookup
// query Provide one value: measured log10 of solubility of C[S+]([O-])c1c(-c2ccccc2)nc2ccccc2c1C(=O)N[C@H](c1ccncc1)C1CC1 (mixture of isomers)
// result 2.00
